protocol text: MicroPET/CT imaging and biodistribution, HepG2 tumor model
Format: in vivo, nude mice
measurement context: both sexes, BALB/c nude, mouse, HepG2 tumor / liver, iv, 5.55 MBq, total radioactivity; HepG2 (GPC3+) tumor bearing mice, 60 min; read-out: Tumor-to-liver (T/L) uptake ratio
property name: tissue to tissue ratio at 1 h

Exercise: GET /values?readout=tissue to tissue ratio at 1 h&item= CC(C)C[C@H](NC(=O)[C@H](CCCNC(=N)N)NC(=S)Nc1ccc(CC2CN(CC(=O)O)CCN(CC(=O)O)CCN2CC(=O)O)cc1)C(=O)N[C@@H](CC(N)=O)C(=O)N[C@H](C(=O)NCC(=O)NCC(=O)N[C@H](C(=O)N[C@@H](Cc1ccc(O)cc1)C(=O)N[C@@H](Cc1ccccc1)C(=O)N[C@@H](CC(C)C)C(=O)N[C@H](C(=O)N[C@H](C(=O)N[C@@H](CCCNC(=N)N)C(=O)N[C@@H](CCC(N)=O)C(=O)O)[C@@H](C)O)[C@@H](C)O)[C@@H](C)O)C(C)C (single isomer, unassigned) [Al[^18F]F-GP2076]
Solution: 0.59
